Values compiled from the supplement of paper PMC10567573.

assay: protein stability index of a GFP-peptide fusion (GPS, HEK-293T) (PSI 1-6); higher = more stable; conditions: treatment: MLN4924 1 uM, 8 h; c terminus: a fixed tail appended;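 note: 24-mer peptide tiles fused after GFP, lentivirally expressed, FACS-sorted into six equal bins by GFP/DsRed ratio, decoded by Illumina sequencing, PSI is the read-weighted mean bin number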
Recorded protein stability index, one value per entry.
// no unit string in output, number only

SFTTNEKAILEQNFRDLVRDLEKQ [TRIM29]
4.19
NRTLWRLDLAGNNIPGDVLRAVEQ [LRRC45]
3.51
VAFRGLKGKKLYPVVSAVWGHCEV [SPSB4]
2.71
SPVAHKHLSRQKIDPLLYMTEWFM [TBC1D10A]
2.23
DDSGGPTPSSYAPSHPPRPLLPLD [ZBTB22]
4.79

Report protein stability index for ILHPELTVDSMIPAYATTRIRSQI [GDAP1] please.
2.55

Report protein stability index for LFEEPAPQALATRALPCPAHVVFR [FCHSD1] please.
3.21

Report protein stability index for INRWRFLLQCLEDLDANLRKLNSR [CRY1] please.
2.45

Report protein stability index for ISVLAFSVCFIFTITIGMFPAVTV [SLC29A1] please.
2.92

Report protein stability index for EALNERHSIINALKAKLQMTEAAL [LRRC45] please.
2.91

Report protein stability index for QPLNFVRFYLPLLIHQHEKVIYLD [GLT8D2] please.
3.03

Report protein stability index for LQVIYWARDVFIITGVWVFFFNPC [GOSR1] please.
2.57

---

assay: protein stability index of a GFP-peptide fusion (GPS, HEK-293T) (PSI 1-6); higher = more stable; conditions: treatment: DMSO; c terminus: a fixed tail appended
OBSERVATION TYPE: protein stability index
// no unit string in output, number only

Solved cases below.
DVMLVECYDPKGDQWNILQTPILE [KLHL14]
2.55
ASQSLGSPMYFFLASLSFIDTVYS [OR4A15]
2.89
DFIDCVREKGGKVLVHCEAGISRS [DUSP5]
2.77
GDEFSLREHELLCRADHGLLLERA [ISL2]
4.06
LKEFDLDALLGIDDLETMPDDLLT [ATF4]
3.81

Report protein stability index for DLMKRLRFALIPAPELVERVQSVD [KLHL14] please.
2.16

Report protein stability index for PPHRRRLLFACSPPPASQPVVKAL [CDC25A] please.
2.64

Report protein stability index for RVRRFQVVEVTKGILEHVDSASPV [M1AP] please.
3.36

Report protein stability index for SKAPGSCDPGTDPCPEDASTPRPP [TLE6] please.
5.59

Report protein stability index for AHRIAAQTLLGTAKMLLHEGQHPA [PYCR3] please.
2.97

---

test: protein stability index of a GFP-peptide fusion (GPS, HEK-293T) (PSI 1-6); higher = more stable; details: treatment: DMSO; c terminus: a fixed tail appended
OBSERVATION TYPE: protein stability index
// no unit string in output, number only

Solved cases below.
HLKKVASRYQNNIKNDKYGPWLEW [PRIM1]
2.23
TGFGQGQGYTINVPWNQVGMRDAD [HDAC6]
2.89
ILTFLRAGKLRLLREMCALSFQEE [KCNG1]
3.24
VIMWDIGGRKGTAIELQGHNDRVQ [WDFY2]
2.57
VLPKPKVISCLEQGEEPWVQVSPE [ZNF75A]
4.21

Report protein stability index for MEAYLPKKNGLYLSLVLGNVNVTL [TMEM120A] please.
3.28

Report protein stability index for IVEVLGIPPAAMLDQAPKARKYFE [DYRK1B] please.
2.65
